Examples of binders with documented Max inhibition % follow.
biological target: human Claudin18.2 (CLDN18.2) (human, UniProt P56856 1-261); test: cell-based or functional assay
Hey, just the number and the unit after it is fine.

// known answers, use as guide
| BINDER | PROPERTY_MEASURED | ENDPOINT_VALUE |
| --- | --- | --- |
| chAb05 (antibody, V domains shown) VH: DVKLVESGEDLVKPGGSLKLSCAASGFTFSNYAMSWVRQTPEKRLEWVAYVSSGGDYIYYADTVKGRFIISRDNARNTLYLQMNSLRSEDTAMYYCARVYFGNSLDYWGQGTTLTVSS VL: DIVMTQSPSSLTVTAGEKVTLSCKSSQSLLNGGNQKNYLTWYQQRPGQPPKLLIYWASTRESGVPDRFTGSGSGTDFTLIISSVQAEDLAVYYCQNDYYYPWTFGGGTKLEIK | Max inhibition % | 92.3% |
| chAb10 (antibody, V domains shown) VH: EVMLVESGGGLVKPGGSLKLSCAASGFTFSSYTMSWVRQTPEKRLEWVATISVIGGNTYYVDSVKGRFTISRDKAKNTLYLQMSSLRSEDTALYYCARLGQTQRNAMDYWGQGTSVTVSS VL: DIVMTQSPSSLSVSAGEKVTMSCKSSQSLLNSGNQKNYLAWYQQKPGQPPKLLIYGASTRESGVPDRFTGSGSGTDFTLTISSVQAEDLAVYYCQNDYSYPLTFGAGTKLELK | Max inhibition % | 92.8% |

Next item in the queue.
Request: Quote Max inhibition % reported for IMAB362 (Zolbetuximab) (antibody, V domains shown) VH: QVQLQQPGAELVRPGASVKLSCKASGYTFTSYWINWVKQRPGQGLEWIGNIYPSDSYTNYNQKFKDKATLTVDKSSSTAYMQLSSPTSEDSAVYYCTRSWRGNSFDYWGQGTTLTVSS VL: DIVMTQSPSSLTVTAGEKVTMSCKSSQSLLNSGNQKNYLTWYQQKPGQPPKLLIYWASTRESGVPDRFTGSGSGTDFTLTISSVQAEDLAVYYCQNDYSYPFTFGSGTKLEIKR please.
Result: 81.8%
